# Tested on: EV-D68 US/KY/14-18953 virus
# PROTOCOL TEXT: CPE assay, EV-D68 US/KY/14-18953 in RD cells
# Assay type: cell-based, Enterovirus D68 (EV-D68)
# COND: Enterovirus D, EVD68, RD, EV-D68 US/KY/14-18953, RD cells, CPE assay; read-out: EC50
Each entry below carries its recorded EC50.
Form entry: value (µM) — number only.

Known EC50 results, listed for orientation:
- O=C(NCC1CNC1)c1cc(-c2cccs2)nc2ccccc12: 1.2
- CN(C)CCNC(=O)c1cc(-c2c(F)cccc2F)nc2ccccc12: 12.1
- [2H]c1c([2H])c([2H])c(-c2cc(C(=O)NCCNC)c3ccccc3n2)c([2H])c1[2H]: 1.1
- O=C(NC1CNC1)c1cc(-c2ccco2)nc2ccccc12: 11.1

What does the record list as EC50 for O=C(NC1C2CNCC21)c1cc(-c2cccs2)nc2ccccc12 (stereo not drawn) ?
6.4

Same thing, different compound: `CN(C)CCNC(=O)c1cc(-c2c(F)cc(F)cc2F)nc2ccccc12`
3.6

Same thing, different compound: `N=C(N)NCCNC(=O)c1cc(-c2ccccc2)nc2ccccc12`
3.3

Same thing, different compound: `O=C(NCC1CNC1)c1cc(-c2ccccc2)nc2ccccc12`
5.8

Same thing, different compound: `CN1CC(NC(=O)c2cc(-c3cccs3)nc3ccccc23)C1`
1
